Biological target: His-EBNA1 (DNA binding domain of EBNA1, amino acids 459-607) (Epstein-Barr virus, UniProt P03211)
Sequence (P03211 459-607): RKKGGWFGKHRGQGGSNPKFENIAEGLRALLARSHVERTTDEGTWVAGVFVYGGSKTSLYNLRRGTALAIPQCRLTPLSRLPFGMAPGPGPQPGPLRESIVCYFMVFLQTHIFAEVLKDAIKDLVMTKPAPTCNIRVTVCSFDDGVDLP
assay.metric: IC50

[[record]]
structure_as_smiles = "O=C(O)c1cccc(C#Cc2ccc3c(CN4CCOCC4)c[nH]c3c2)c1-c1ccc2cc[nH]c2c1"
obs_value = "10 to 100 µM"

[[record]]
structure_as_smiles = "CN1CCN(Cc2ccc(C#Cc3cccc(C(=O)O)c3-c3cnc4[nH]ccc4c3)cc2)CC1"
obs_value = "10 to 100 µM"

[[record]]
structure_as_smiles = "O=C(O)c1cccc(C#Cc2cn(CCCN3CCOCC3)c3ncccc23)c1-c1ccc2cc[nH]c2c1"
obs_value = "10 to 100 µM"

[[record]]
structure_as_smiles = "Nc1nc2c(s1)C[C@@H](NCc1ccc(C#Cc3cccc(C(=O)O)c3-c3ccc4cc[nH]c4c3)cc1)CC2"
obs_value = "1 to 10 µM"

[[record]]
structure_as_smiles = "O=C(O)c1cccc(C#Cc2ccc(COC3CCOCC3)cc2)c1-c1ccc2cc[nH]c2c1"
obs_value = "10 to 100 µM"

[[record]]
structure_as_smiles = "O=C(O)c1cccc(C#Cc2ccccc2)c1-c1ccc2cc[nH]c2n1"
obs_value = "100 to 1000 µM"

[[record]]
structure_as_smiles = "O=C(O)c1cccc(C#Cc2ccc3c(ccn3CCCN3CCS(=O)(=O)CC3)c2)c1-c1ccc2cc[nH]c2c1"
obs_value = "10 to 100 µM"

[[record]]
structure_as_smiles = "O=C(O)c1cccc(C#Cc2ccc(C(=O)N3CCC(F)(F)CC3)c(O)c2)c1-c1ccc2cc[nH]c2c1"
obs_value = "1 to 10 µM"

